# measurement.target: UniProtKB Q92830
# Sequence (Q92830 whole entry): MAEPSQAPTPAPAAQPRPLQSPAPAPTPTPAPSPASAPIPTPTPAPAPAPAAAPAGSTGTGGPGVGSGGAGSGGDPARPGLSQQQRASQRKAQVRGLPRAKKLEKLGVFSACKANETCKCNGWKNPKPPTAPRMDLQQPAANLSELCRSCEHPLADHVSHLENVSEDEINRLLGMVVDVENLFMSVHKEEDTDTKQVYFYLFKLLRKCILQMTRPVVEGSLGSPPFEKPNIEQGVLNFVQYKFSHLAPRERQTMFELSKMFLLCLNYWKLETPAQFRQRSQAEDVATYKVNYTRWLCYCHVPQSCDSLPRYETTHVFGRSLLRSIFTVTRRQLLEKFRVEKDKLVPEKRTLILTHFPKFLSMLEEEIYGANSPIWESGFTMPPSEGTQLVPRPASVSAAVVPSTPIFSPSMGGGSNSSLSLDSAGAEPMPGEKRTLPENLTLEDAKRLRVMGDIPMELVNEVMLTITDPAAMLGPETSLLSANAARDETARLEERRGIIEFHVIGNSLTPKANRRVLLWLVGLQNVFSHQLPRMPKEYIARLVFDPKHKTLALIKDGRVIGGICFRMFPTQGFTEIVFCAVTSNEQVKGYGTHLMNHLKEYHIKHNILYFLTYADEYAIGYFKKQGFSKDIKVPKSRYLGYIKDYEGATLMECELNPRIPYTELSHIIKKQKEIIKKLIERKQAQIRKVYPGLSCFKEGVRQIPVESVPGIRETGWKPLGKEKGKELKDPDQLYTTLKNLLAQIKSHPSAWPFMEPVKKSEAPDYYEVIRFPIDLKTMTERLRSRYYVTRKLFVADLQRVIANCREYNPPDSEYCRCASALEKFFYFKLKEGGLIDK
# procedure.details: KAT2A degradation, Western Blot (Jess), MOLM-13 cells
# Assay type: cell-based
# Parameters: degrader, Western blot
# protocol.conditions: MOLM-13 cells, KAT2A, 24 h, Western Blot, vs DMSO; read-out: KAT2A MOLM-13 DC50
endpoint.label: DC50

CN1C[C@H](Nc2cnn(C)c(=O)c2Br)C[C@H](c2ccc(CN3CCC4(CC3)CN(c3cccc(C5CCC(=O)NC5=O)c3)C4)cc2)C1 (stereo partly drawn)	1 to 30 nM
CN1C[C@H](Nc2cnn(C)c(=O)c2Br)C[C@H](c2ccc(CN3CC4(CCN(c5ccc(C6CCC(=O)NC6=O)cc5)CC4)C3)cc2)C1 (stereo partly drawn)	< 1 nM

Please give measured DC50 of the following entry: CN1C[C@H](Nc2cnn(C)c(=O)c2Br)C[C@H](c2ccc(CN3CCC(c4cccc5c4CN(C4CCC(=O)NC4=O)C5=O)CC3)cc2)C1 (stereo partly drawn) 1 to 30 nM
